assayed_target: HLA-B*54:01
test_protocol: IEDB peptide-MHC binding, purified MHC/competitive/radioactivity; filed as Kd, often an IC50 or EC50 that approximates it; bounds were set here for any values at or beyond the usual limits of such assays
test_parameters: source organism: Variola virus
readout: Kd

get_value(item= AKNPNRFVI , readout=Kd) returns ≥ 78.1 µM

----------
assayed_target: HLA-B*39:01
test_protocol: IEDB peptide-MHC binding, purified MHC/competitive/fluorescence; filed as Kd, often an IC50 or EC50 that approximates it; bounds were set here for any values at or beyond the usual limits of such assays
test_parameters: source organism: Pan troglodytes
pKd: −log10 of the molar value.
readout: pKd

get_value(item= FLFDRLTNG , readout=pKd) returns ≤ 4.70
